B1: LCOR (parent)
chain: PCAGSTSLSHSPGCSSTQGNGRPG

Variants of: B1
Test: protein stability index of a GFP-peptide fusion (GPS, HEK-293T) (PSI 1-6); higher = more stable;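 note: lentivirally expressed fusions sorted by FACS into six bins by GFP to DsRed ratio, PSI derived from sequencing read proportions per bin multiplied by bin number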
Settings: c terminus: a fixed tail appended
Label rule, in plain words: protein stability index of 4 and up is class 1, under 4 is class 0.

G19C = class 0

Then there is this variant:
Query :: Reported protein stability index reaches at least 4 for C14K ?
Result :: class 1

Sourced from the supplement of paper PMC10567573
